- study_system: Orai1/STIM1 (Homo sapiens, UniProt Q96D31)
- Construct: expressed in transfected cells; host or cells: HEK-293
- Sequence (Q96D31 whole entry): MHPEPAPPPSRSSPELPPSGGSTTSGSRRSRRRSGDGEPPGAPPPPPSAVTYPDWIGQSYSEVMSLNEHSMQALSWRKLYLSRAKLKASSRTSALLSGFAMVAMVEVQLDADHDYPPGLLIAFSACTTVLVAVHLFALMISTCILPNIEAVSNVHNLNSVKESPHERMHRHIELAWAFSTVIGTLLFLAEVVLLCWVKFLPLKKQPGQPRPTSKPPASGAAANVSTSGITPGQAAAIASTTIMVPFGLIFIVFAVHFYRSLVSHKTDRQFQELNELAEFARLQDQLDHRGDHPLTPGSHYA
- experimental_details: Fluorescence-based assay of store-operated calcium entry in Orai1/STIM1 stable cells
- Format: cell-based
- particulars: Table iv; HEK-293 cells stably expressing human STIM1 and Orai1; 50% inhibition of Peak-Basal fluo-4 signal; read-out: Orai1/STIM1 (IC50, μmol)
- Protocol: A. Fluorescence-based Assay of Store-Operated Calcium Entry in Orai1/STIM1 Stable Cells. […] The day prior to performing the assay Orai1/STIM1 stable cells are plated in 50 μL of complete medium at 90-95% confluence in a 384 well plate. […] The initial baseline fluorescence signal is then measured with a FLIPR^384 (Molecular Devices) plate reader. Calcium entry is initiated by adding 5 μl of 10× CaCl2 (10 mM) in HBSS, and changes in cellular fluorescence are measured with the FLIPR^384 plate reader. […]
pIC50: −log10 of the molar value.
property_name: pIC50

These solved cases illustrate the format of a correct answer.
{"columns": ["structure_smiles", "result_value"],
 "data": [
  ["Cc1nc(C(F)(F)F)cn1-c1ccc(NC(=O)c2ccccc2F)cc1", "5.92 to 6.22"],
  ["Cn1nc(C(F)(F)F)cc1-c1ccc(NC(=O)c2ccc(F)cc2F)cc1F", "> 6.22"],
  ["Cc1cccc(F)c1C(=O)Nc1ccc(-c2cn(C(F)F)nc2C)cc1", "5.92 to 6.22"]
]}

Assign pIC50 to the following record: `Cc1sc(C(F)(F)F)nc1-c1ccc(NC(=O)c2c(F)cc(F)cc2F)cc1`
> 6.22

Assign pIC50 to the following record: `Cn1nc(C(F)(F)F)cc1-c1ccc(NC(=O)c2c(F)cncc2F)c(F)c1`
> 6.22

====

- study_system: Orai1/STIM1 (Homo sapiens, UniProt Q96D31)
- Construct: expressed in transfected cells; host or cells: HEK-293
- experimental_details: Fluorescence-based assay of store-operated calcium entry in Orai1/STIM1 stable cells
- Type: cell-based
- particulars: Table iii; HEK-293 cells stably expressing human STIM1 and Orai1; 50% inhibition of Peak-Basal fluo-4 signal; read-out: Orai1/STIM1 (IC50, μmol)
pIC50: −log10 of the molar value.
property_name: pIC50

These solved cases illustrate the format of a correct answer.
{"columns": ["structure_smiles", "pIC50"],
 "data": [
  ["Cc1nn(C(F)F)cc1-c1ccc(NCc2c(F)cc(F)cc2F)cc1F", "> 6.22"],
  ["Cc1nc(C(F)(F)F)cn1-c1ccc(NCc2ccccc2F)cc1", "> 6.22"]
]}

Please report pIC50 with Orai1/STIM1 (Homo sapiens, UniProt Q96D31) for item `Cn1nc(C(F)(F)F)cc1-c1ccc(NCc2cncc(F)c2)cc1F` .
5.92 to 6.22

====

- study_system: Orai1/STIM1 (Homo sapiens, UniProt Q96D31)
- Construct: expressed in transfected cells; host or cells: HEK-293
- experimental_details: Fluorescence-based assay of store-operated calcium entry in Orai1/STIM1 stable cells
- Type: cell-based
- particulars: Table iv; HEK-293 cells stably expressing human STIM1 and Orai1; 50% inhibition of Peak-Basal fluo-4 signal; read-out: Orai1/STIM1 (IC50, μmol)
Below: a set of entries, each annotated with reported IC50.

These solved cases illustrate the format of a correct answer.
{"columns": ["structure_smiles", "study_system", "IC50"],
 "data": [
  ["Cc1nn(C(F)F)cc1-c1ccc(NC(=O)c2ccccc2F)cc1", "Orai1/STIM1 (Homo sapiens, UniProt Q96D31)", "0.6 to 1.2 µM"],
  ["Cc1cccc(F)c1C(=O)Nc1ccc(-c2nc(C(F)(F)F)sc2C)cc1", "Orai1/STIM1 (Homo sapiens, UniProt Q96D31)", "< 0.6 µM"]
]}

Assign IC50 to the following record: `Cc1sc(C(F)(F)F)nc1-c1ccc(NC(=O)c2c(F)cccc2F)cc1`
< 0.6 µM

Assign IC50 to the following record: `Cc1ccccc1C(=O)Nc1ccc(-c2cn(C(F)F)nc2C)c(F)c1`
< 0.6 µM

Assign IC50 to the following record: `O=C(Nc1ccc(-n2nc(C(F)(F)F)cc2C(F)(F)F)cc1)c1ccncc1F`
0.6 to 1.2 µM

Assign IC50 to the following record: `Cc1nc(C(F)(F)F)cn1-c1ccc(NC(=O)c2c(F)cccc2F)cc1F`
> 1.2 µM

====

Below: a set of entries, each annotated with reported pIC50.
- study_system: Orai1/STIM1 (Homo sapiens, UniProt Q96D31)
- Construct: expressed in transfected cells; host or cells: HEK-293
- experimental_details: Fluorescence-based assay of store-operated calcium entry in Orai1/STIM1 stable cells
- Format: cell-based
- particulars: Table iii; HEK-293 cells stably expressing human STIM1 and Orai1; 50% inhibition of Peak-Basal fluo-4 signal; read-out: Orai1/STIM1 (IC50, μmol)
- Protocol: A. Fluorescence-based Assay of Store-Operated Calcium Entry in Orai1/STIM1 Stable Cells. […] The day prior to performing the assay Orai1/STIM1 stable cells are plated in 50 μL of complete medium at 90-95% confluence in a 384 well plate. […] The initial baseline fluorescence signal is then measured with a FLIPR^384 (Molecular Devices) plate reader. Calcium entry is initiated by adding 5 μl of 10× CaCl2 (10 mM) in HBSS, and changes in cellular fluorescence are measured with the FLIPR^384 plate reader. […]
pIC50: −log10 of the molar value.

These solved cases illustrate the format of a correct answer.
{"columns": ["structure_smiles", "pIC50"],
 "data": [
  ["Cn1nc(C(F)(F)F)cc1-c1ccc(NCc2c(F)cc(F)cc2F)cc1F", "> 6.22"],
  ["Cn1nc(C(F)(F)F)cc1-c1ccc(NCc2c(F)ccc(F)c2F)cc1F", "> 6.22"],
  ["Cc1nc(C(F)(F)F)cn1-c1ccc(NCc2c(F)cc(F)cc2F)cc1", "> 6.22"],
  ["Cc1cc(F)ccc1CNc1ccc(-c2cc(C(F)(F)F)nn2C)c(F)c1", "> 6.22"],
  ["Cc1sc(C(F)(F)F)nc1-c1ccc(NCc2ccccc2F)cc1", "> 6.22"]
]}

Assign pIC50 to the following record: `Cn1nc(C(F)(F)F)cc1-c1ccc(NCc2c(F)ccc(F)c2F)cc1`
> 6.22

Assign pIC50 to the following record: `Cc1nc(C(F)(F)F)cn1-c1ccc(NCc2c(F)cccc2F)cc1`
> 6.22

Assign pIC50 to the following record: `Cc1nn(C(F)F)cc1-c1ccc(NCc2ccccc2F)cc1F`
> 6.22

Assign pIC50 to the following record: `Cc1cccc(F)c1CNc1ccc(-c2cn(C(F)F)nc2C)cc1`
> 6.22

Assign pIC50 to the following record: `Cc1cc2c(cc1-c1ccc(NCc3ccncc3F)cc1)OC(F)(F)O2`
5.92 to 6.22

Assign pIC50 to the following record: `Cn1nc(C(F)(F)F)cc1-c1ccc(NCc2c(F)cccc2F)c(F)c1`
> 6.22

====

Below: a set of entries, each annotated with reported IC50.
- study_system: Orai1/STIM1 (Homo sapiens, UniProt Q96D31)
- Construct: expressed in transfected cells; host or cells: HEK-293
- experimental_details: Fluorescence-based assay of store-operated calcium entry in Orai1/STIM1 stable cells
- Assay type: cell-based
- particulars: Table iv; HEK-293 cells stably expressing human STIM1 and Orai1; 50% inhibition of Peak-Basal fluo-4 signal; read-out: Orai1/STIM1 (IC50, μmol)

{"columns": ["structure_smiles", "result_value"],
 "data": [
  ["Cc1cc2c(cc1-c1ccc(NC(=O)c3c(F)cncc3F)cc1F)OC(F)(F)O2", "> 1.2 µM"]
]}

Assign IC50 to the following record: `Cc1sc(C(F)(F)F)nc1-c1ccc(NC(=O)c2ccccc2F)cc1`
< 0.6 µM

Assign IC50 to the following record: `Cc1cc2c(cc1-c1ccc(NC(=O)c3scnc3C)cc1)OC(F)(F)O2`
0.6 to 1.2 µM

Assign IC50 to the following record: `Cc1nc(C(F)(F)F)cn1-c1ccc(NC(=O)c2ccccc2F)cc1F`
> 1.2 µM

Assign IC50 to the following record: `O=C(Nc1ccc(-n2nc(C(F)(F)F)cc2C(F)(F)F)cc1)c1c(F)cncc1F`
> 1.2 µM

====

- study_system: Orai1/STIM1 (Homo sapiens, UniProt Q96D31)
- Construct: expressed in transfected cells; host or cells: HEK-293
- experimental_details: Fluorescence-based assay of store-operated calcium entry in Orai1/STIM1 stable cells
- Format: cell-based
- particulars: Table iii; HEK-293 cells stably expressing human STIM1 and Orai1; 50% inhibition of Peak-Basal fluo-4 signal; read-out: Orai1/STIM1 (IC50, μmol)
pIC50: −log10 of the molar value.
property_name: pIC50

These solved cases illustrate the format of a correct answer.
{"columns": ["structure_smiles", "property_name", "result_value"],
 "data": [
  ["Cc1cc(F)ccc1CNc1ccc(-n2cc(C(F)(F)F)nc2C)c(F)c1", "pIC50", "< 5.92"],
  ["Cn1nc(C(F)(F)F)cc1-c1ccc(NCc2c(F)cccc2F)cc1F", "pIC50", "> 6.22"],
  ["Cc1nc(C(F)(F)F)cn1-c1ccc(NCc2c(F)ccc(F)c2F)cc1F", "pIC50", "> 6.22"],
  ["Fc1ccccc1CNc1ccc(-n2nc(C(F)(F)F)cc2C(F)(F)F)cc1", "pIC50", "> 6.22"]
]}

Assign pIC50 to the following record: `Cc1cc(C(F)(F)F)nn1-c1ccc(NCc2ccccc2F)cc1`
> 6.22

Assign pIC50 to the following record: `CCn1nc(C(F)(F)F)cc1-c1ccc(NCc2c(F)cc(F)cc2F)cc1F`
5.92 to 6.22

Assign pIC50 to the following record: `Cc1cnccc1CNc1ccc(-c2cc(C(F)(F)F)nn2C)c(F)c1`
5.92 to 6.22

Assign pIC50 to the following record: `CCn1nc(C(F)(F)F)cc1-c1ccc(NCc2c(F)cccc2F)cc1`
> 6.22

Assign pIC50 to the following record: `Cc1cc2c(cc1-c1ccc(NCc3c(F)cccc3F)cc1F)OC(F)(F)O2`
< 5.92

Assign pIC50 to the following record: `CCn1nc(C(F)(F)F)cc1-c1ccc(NCc2ccccc2F)cc1`
> 6.22

Assign pIC50 to the following record: `Cc1nc(C(F)(F)F)cn1-c1ccc(NCc2c(F)ccc(F)c2F)cc1`
> 6.22
